Where do these numbers come from? They come from PubChem BioAssay (NCI).

test system: MCF7 breast; experiment: NCI-60 one-dose screen, 48 h (100 = growth as untreated, 0 = no growth, -100 = all killed); conditions: 10 µM unless noted
Compounds without any hit were thinned out: in the full panel of roughly 83,000, 20% have a hit.
Observed Property: growth (%)
Please give a number only; it is taken to be in %.

Here is how some compounds turned out for growth.
{"Compound": "N#CC(C#N)=C(C#N)C#N", "Tested Target": "MCF7 breast", "Unit": "%", "Value": 98.1}
{"Compound": "COc1ccc(N(CC(=O)NCCC[Te]c2ccccc2)C(=O)c2ccccc2)cc1", "Tested Target": "MCF7 breast", "Unit": "%", "Value": 13.2}
{"Compound": "CC(=O)Cc1ccc2c(c1)OCO2", "Tested Target": "MCF7 breast", "Unit": "%", "Value": 115}
{"Compound": "COc1ccc2c(c1)c(-c1nc(-c3cn(C)c4ncccc34)cs1)cn2CCCCN1CCOCC1", "Tested Target": "MCF7 breast", "Unit": "%", "Value": 15.1}

Under MCF7 breast: growth value of COC(=O)C1=CO[C@@H](C)[C@@H]2CN3CCc4c([nH]c5cc(OC)ccc45)[C@@H]3C[C@H]12 ?
91.1

Follow-up item: CCCCCCCCCCCCCCCCCC1OCC(COC(=O)O[C@@H](C(=O)O[C@H]2C[C@@]3(O)[C@@H](OC(=O)c4ccccc4)[C@@H]4[C@]5(OC(C)=O)CO[C@@H]5C[C@H](O)[C@@]4(C)C(=O)[C@H](OC(C)=O)C(=C2C)C3(C)C)[C@@H](NC(=O)c2ccccc2)c2ccccc2)O1 (stereo partly specified)
18.3

* * *

Tested on: MCF7 breast
Experiment: NCI-60 one-dose screen, 48 h
Conditions: 10 µM unless noted
Procedure: Growth inhibition of the MCF7 human tumor cell line is measured as a screen for anti-cancer activity. Cells are grown in 96 well plates and exposed to the test compound for 48 hours. Compounds are tested at a single concentration, which is 10^-5 M for most compounds. The reported endpoint is percent growth (GI% or GIPRCNT), where numbers from 0 - 100% represent growth inhibition, and numbers from -100% - 0 represent cell death. For example, a value of 40 represents 60% growth inhibition. […]
This is part of a sample that, as a whole, favours compounds with a hit. Of some 83,000 tested, about 20% had one in any assay. Calls of active or inactive are those of the source. Rule for the calls: active = growth percent below 10; inactive = the rest.
Just give me one of these, please: active, inactive

{"Molecule": "CC(=O)Nc1nc2c(s1)C1=CC[C@H]3[C@@H]4CC[C@H](OC(C)=O)[C@@]4(C)CC[C@@H]3[C@@]1(C)CC2", "Class Label": "inactive"}
{"Molecule": "C/C=C(/C)C(=O)O[C@H]1CC[C@@]2(C)[C@@H]3CC[C@H]4[C@]5(O)C[C@H](O)[C@@]6(O)[C@@H](CN7C[C@@H](C)CC[C@H]7[C@@]6(C)O)[C@]5(O)C[C@@]42O[C@@]13O", "Class Label": "inactive"}
{"Molecule": "C/C(=C\\c1ccn(-c2ccc(N)c(C(F)(F)F)c2)n1)[C@@H]1C[C@@H]2O[C@]2(C)CCC[C@H](C)[C@H](O)[C@@H](C)C(=O)C(C)(C)[C@@H](O)CC(=O)O1", "Class Label": "inactive"}
{"Molecule": "Cc1ccc(N2CCN(CCC#N)CC2)cc1", "Class Label": "inactive"}
{"Molecule": "Cc1ccc(C(=O)O[C@H](C(=O)O)[C@H](OC(=O)c2ccc(C)cc2)C(=O)O)cc1", "Class Label": "inactive"}

Please indicate how the test categorized Nc1nc(=S)nc(N)[nH]1 .
inactive

Follow-up item: COc1c(O)cc2c(c1OC)-c1ccc(SC)c(=O)cc1C(NC(C)=O)CC2 (stereo not given)
inactive

Follow-up item: CCCCOC(N)=O
inactive

Follow-up item: C#COc1cccc(Nc2ncnc3cc(NC(=O)CF)ccc23)c1
inactive

Follow-up item: CCC1(CCSC#N)C(=O)NC(=O)NC1=O
inactive

Follow-up item: C[C@]12CC[C@H]3[C@@H](C[C@@H]4SC(Nc5cccc(F)c5)=N[C@@]45CC(=O)CC[C@]35C)[C@@H]1CCC2=O
active

Follow-up item: CCOC(=O)c1cncn1C(C)c1ccccc1 (stereo not given)
inactive

Follow-up item: CCC(Br)(CC)C(=O)NC(N)=O
inactive

Follow-up item: CCOP(=O)(OCC)C(=O)N(CC)CC
inactive

Follow-up item: O=S(OO)c1cc(Cl)c(O)c(Cl)c1 (stereo not given)
inactive

Follow-up item: Cn1cc(C(=O)C[n+]2ccccc2)c2ccccc21
inactive

Follow-up item: CC[C@H](C)[C@H](NC(=O)[C@H]1CCCCN1C)C(=O)N(C)[C@H](C[C@@H](OC(C)=O)c1cccc(C(=O)N[C@@H](Cc2ccccc2)C[C@H](C)C(=O)OC)n1)C(C)C
inactive

Follow-up item: O=C(O)C(Br)CBr (stereo not given)
inactive

Follow-up item: C[C@]12CC[C@H]3[C@@H](CC=C4c5nc(N)sc5CC[C@@]43C)[C@@H]1CC[C@@H]2O
inactive

Follow-up item: c1ccc(CCN2CCCCC2)nc1
inactive

* * *

test system: NCI-H460 lung; experiment: NCI-60 one-dose screen, 48 h (100 = growth as untreated, 0 = no growth, -100 = all killed); conditions: 10 µM unless noted
About 83,000 compounds went through this panel and 20% of them were active in at least one assay; those are over-represented in the sample as a whole.
Rule: growth under 60% gives false, otherwise true.

{"Compound": "C[C@]12CC[C@@H](OC(=O)N(CCCl)N=O)C[C@@H]1CC[C@@H]1[C@@H]2CC[C@]2(C)C(=O)CC[C@@H]12", "Class Label": "false"}
{"Compound": "COc1c(O)cc2c(c1OC)-c1ccc(SC)c(=O)cc1C(NC(C)=O)CC2 (centres undefined)", "Class Label": "false"}

Form field: growth at least 60%? Entry: O=[N+]([O-])c1cc(Br)c(O)c(Br)c1
true

Follow-up item: OCCN=Cc1c[nH]c2ccccc12
true

Follow-up item: O=C(NC(Cl)=C(Cl)Cl)P(=O)(c1ccccc1)c1ccccc1
true

Follow-up item: CCN1C(=O)CC(=O)N(CC)C1=S
true

Follow-up item: O=S(=O)(F)c1cccc(Cl)c1C[P+](c1ccccc1)(c1ccccc1)c1ccccc1
true

Follow-up item: CC1=C([Te]c2ccccc2)C(=O)c2ccccc2C1=O
false

Follow-up item: COc1ccc(C(C#N)C(C)=O)cc1 (centres undefined)
true

Follow-up item: Cc1cc(N)ccc1N
true

Follow-up item: Cc1c(C)c(N)c(C)c(C)c1N
false

Follow-up item: Nc1nc(=S)nc(N)[nH]1
true

Follow-up item: Cc1ccccc1-n1c(/C=C\c2ccccn2)nc2ccccc2c1=O
true

* * *

Tested on: MDA-MB-231 breast
Experiment: NCI-60 one-dose screen, 48 h (100 = growth as untreated, 0 = no growth, -100 = all killed)
Conditions: 10 µM unless noted
Experimental: Cells are grown in 96 well plates and exposed to the test compound for 48 hours. Compounds are tested at a single concentration, which is 10^-5 M for most compounds. The reported endpoint is percent growth (GI% or GIPRCNT), where numbers from 0 - 100% represent growth inhibition, and numbers from -100% - 0 represent cell death. For example, a value of 40 represents 60% growth inhibition. A value of 0 means no net growth occurred over the course of the experiment. […]
The panel holds about 83,000 compounds, 20% with a hit somewhere; the sample as a whole holds those more often.
Observed Property: growth (%)
Please give a number only; it is taken to be in %.

Here is how some molecules turned out for growth.
{"Molecule": "Nc1nc(=S)nc(N)[nH]1", "growth, %": 92.1}
{"Molecule": "Nc1ccc(S(=O)(=O)F)cc1", "growth, %": 117}
{"Molecule": "c1ccc2c(c1)O[As](O[As]1Oc3ccccc3O1)O2", "growth, %": 62}

So what's the measured growth for this one? COc1ccc(N)cc1N
99

Follow-up item: C=CC[PH+](c1ccccc1)c1ccccc1.C=CC[PH+](c1ccccc1)c1ccccc1.[Pt+2].[S-]c1nc2ccccc2[nH]1.[S-]c1nc2ccccc2[nH]1
-44.3

Follow-up item: CCCN1C(=O)NC(=O)C(CC)(N2C(=O)c3c(F)c(F)c(F)c(F)c3C2=O)C1=O (centres undefined)
-78.7

* * *

Catalogue of growth readings, one per entry.
System: NCI-H23 lung
Experiment: NCI-60 one-dose screen, 48 h (100 = growth as untreated, 0 = no growth, -100 = all killed)
Conditions: 10 µM unless noted
Description: Growth inhibition of the NCI-H23 human Non-Small Cell Lung tumor cell line is measured as a screen for anti-cancer activity. Cells are grown in 96 well plates and exposed to the test compound for 48 hours. Compounds are tested at a single concentration, which is 10^-5 M for most compounds. The reported endpoint is percent growth (GI% or GIPRCNT), where numbers from 0 - 100% represent growth inhibition, and numbers from -100% - 0 represent cell death. […]
About 83,000 compounds went through this panel and 20% of them were active in at least one assay; those are over-represented in the sample as a whole. Activity calls are given as the source filed them. Rule for the calls: active = growth percent below 10; inactive = the rest.

Here is how some molecules turned out for growth.
{"Molecule": "CC[C@H](C)[C@H](NC(=O)C12CC(NC)(C1)C2)C(=O)N(C)[C@H](C[C@@H](OC(C)=O)c1nc(C(=O)N[C@@H](Cc2ccccc2)C[C@H](C)C(=O)OC)cs1)C(C)C", "growth": "15.2% (inactive)"}
{"Molecule": "C[C@]12CCc3nc(-c4ccc(O)c(O)c4)sc3C1=CC[C@@H]1[C@@H]2CC[C@]2(C)C(=O)CC[C@@H]12", "growth": "69% (inactive)"}
{"Molecule": "C=C[Se]CC(=O)/C=C/c1ccccc1", "growth": "70.1% (inactive)"}
{"Molecule": "CCOP(=O)(NC)OCC", "growth": "95.6% (inactive)"}
{"Molecule": "CC(=O)Cc1ccc2c(c1)OCO2", "growth": "93.9% (inactive)"}
{"Molecule": "O=S(=O)(F)c1cccc(Cl)c1C[P+](c1ccccc1)(c1ccccc1)c1ccccc1", "growth": "108% (inactive)"}

Under NCI-H23 lung: growth value of CCOC(=O)P(=O)(OCC)OCC ?
112% (inactive)

Follow-up item: CCCC(C)SP(=S)(SC(C)CCC)SC(C)CCC (configuration not stated)
95.5% (inactive)

Follow-up item: CCOC(=O)c1ccccc1C(=O)OCC
109% (inactive)

Follow-up item: N#CCN(CC#N)[N+](=O)[O-]
109% (inactive)

Follow-up item: O=[N+]([O-])c1cc(Cl)c(Cl)c([N+](=O)[O-])c1Cl
85.6% (inactive)

Follow-up item: CO[C@H]1[C@H](O[C@@H]2C[C@@H]3C/C=C/C(=O)O[C@@H](CO)C[C@H](O)[C@@H]4C[C@H](C)[C@H](C/C=C\C=C\[C@H](C)C[C@H](C2)O3)O4)O[C@@H](C)[C@H](O)[C@H]1O
22.5% (inactive)

Follow-up item: ClCc1ccc(Cl)c(Cl)c1
102% (inactive)

Follow-up item: COc1cc(C=C2C(=O)NC(=O)NC2=O)ccc1O
98.1% (inactive)

Follow-up item: O=CC1(c2ccccc2)CCN(Cc2ccccc2)CC1
101% (inactive)

Follow-up item: CCCCS(=O)(=O)Cl
108% (inactive)
